target: Sphingosine kinase 2 (Homo sapiens); experiment: Inhibition of recombinant human SPHK2 at using sphingosine as substrate after 30 mins in presence of gamma-[32P]-ATP by liquid scintillation counting
result type: Ki (nM)

Some solved entries appear below for comparison.
• N=C(N)N1CCC[C@H]1Cc1nc(-c2ccc(Nc3nc(-c4ccc(C(F)(F)F)cc4)cs3)cc2)no1 = 390
• N=C(N)N1CCC[C@H]1Cc1nc(-c2ccc(Nc3nc(-c4ccc(OC(F)(F)F)cc4)cs3)cc2)no1 = 250

a = N=C(N)N1CCC[C@H]1Cc1nc(-c2ccc(Nc3nc(-c4ccc(F)c(C(F)(F)F)c4)cs3)cc2)no1
b = N=C(N)N1CCC[C@H]1Cc1nc(-c2ccc(Nc3nc(-c4cccc(C(F)(F)F)c4)cs3)cc2)no1
// returns a or b , whichever has the lower Ki State your choice using its label. b
(b: 90 nM, a: 170 nM)

P = N=C(N)N1CCC[C@H]1Cc1nc(-c2ccc(Nc3nc(-c4cc(F)cc(C(F)(F)F)c4)cs3)cc2)no1
Q = N=C(N)N1CCC[C@H]1Cc1nc(-c2ccc(Nc3nc(-c4ccc(-c5ccccc5)cc4)cs3)cc2)no1
// returns P or Q , whichever has the lower Ki State your choice using its label. Q
(Q: 90 nM, P: 170 nM)

====

target: UniProtKB Q9NRA0; assay: Inhibition of recombinant human SPHK2 assessed as residual activity at 0.3 uM using sphingosine as substrate after 30 mins in presence of gamma-[32P]-ATP by liquid scintillation counting relative to control
result type: Activity (%)

- N=C(N)N1CCC[C@H]1Cc1nc(-c2ccc(Nc3nc(-c4cccc(F)c4)cs3)cc2)no1: 45

P = N=C(N)N1CCC[C@H]1Cc1nc(-c2ccc(Nc3nc(-c4ccccc4C(F)(F)F)cs3)cc2)no1
Q = N=C(N)N1CCC[C@H]1Cc1nc(-c2ccc(Nc3nc(-c4cccc(Br)c4)cs3)cc2)no1
Between the entries labelled P and Q , which has a larger Activity value on record? State your choice using its label. P
(P: 72%, Q: 44%)

1 = COc1ccc(-c2csc(Nc3ccc(-c4noc(C[C@@H]5CCCN5C(=N)N)n4)cc3)n2)cc1OC
2 = N=C(N)N1CCC[C@H]1Cc1nc(-c2ccc(Nc3nc(-c4cc(C(F)(F)F)cc(C(F)(F)F)c4)cs3)cc2)no1
// returns 1 or 2 , whichever has the lower Activity State your choice using its label. 2
(2: 63%, 1: 100%)

1 = N=C(N)N1CCC[C@H]1Cc1nc(-c2ccc(Nc3nc(-c4cccc(OC(F)(F)F)c4)cs3)cc2)no1
2 = N=C(N)N1CCC[C@H]1Cc1nc(-c2ccc(Nc3nc(-c4ccc(F)cc4)cs3)cc2)no1
// returns 1 or 2 , whichever has the lower Activity State your choice using its label. 2

====

Biological target: Sphingosine kinase 2 (Homo sapiens)
Sequence (whole entry): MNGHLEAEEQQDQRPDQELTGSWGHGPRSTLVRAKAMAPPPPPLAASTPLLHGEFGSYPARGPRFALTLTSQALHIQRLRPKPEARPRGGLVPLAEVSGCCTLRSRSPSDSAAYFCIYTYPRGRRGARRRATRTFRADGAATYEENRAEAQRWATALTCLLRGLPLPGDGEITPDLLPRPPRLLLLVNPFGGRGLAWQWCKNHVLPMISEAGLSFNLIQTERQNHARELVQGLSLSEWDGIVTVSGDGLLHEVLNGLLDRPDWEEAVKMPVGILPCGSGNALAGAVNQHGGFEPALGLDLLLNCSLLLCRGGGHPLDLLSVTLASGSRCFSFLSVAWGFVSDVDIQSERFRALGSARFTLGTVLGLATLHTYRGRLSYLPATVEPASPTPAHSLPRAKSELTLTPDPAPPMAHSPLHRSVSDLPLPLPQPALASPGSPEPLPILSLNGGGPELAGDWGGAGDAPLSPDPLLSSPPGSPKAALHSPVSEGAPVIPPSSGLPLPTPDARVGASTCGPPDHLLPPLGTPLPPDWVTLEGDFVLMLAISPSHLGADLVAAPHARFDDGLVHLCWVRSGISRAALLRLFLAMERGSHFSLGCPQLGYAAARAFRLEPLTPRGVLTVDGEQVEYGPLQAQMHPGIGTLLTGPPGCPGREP
Assay: Inhibition of recombinant human SPHK2 assessed as residual activity at 0.3 uM using sphingosine as substrate after 30 mins in presence of gamma-[32P]-ATP by liquid scintillation counting relative to control
result type: Activity (%)

Some solved entries appear below for comparison.
• N=C(N)N1CCC[C@H]1Cc1nc(-c2ccc(Nc3nc(-c4ccc(C(F)(F)F)cc4)cs3)cc2)no1 = 36
• N=C(N)N1CCC[C@H]1Cc1nc(-c2ccc(Nc3nc(-c4ccc(-c5cccc(C(F)(F)F)c5)cc4)cs3)cc2)no1 = 85
• N=C(N)N1CCC[C@H]1Cc1nc(-c2ccc(Nc3nc(-c4cc(F)cc(C(F)(F)F)c4)cs3)cc2)no1 = 30
• Cc1ccc(-c2csc(Nc3ccc(-c4noc(C[C@@H]5CCCN5C(=N)N)n4)cc3)n2)cc1 = 80
• N=C(N)N1CCC[C@H]1Cc1nc(-c2ccc(Oc3nc(-c4ccc(C(F)(F)F)cc4)cs3)cc2)no1 = 55

A = N=C(N)N1CCC[C@H]1Cc1nc(-c2ccc(Nc3nc(-c4ccccc4)cs3)cc2)no1
B = N=C(N)N1CCC[C@H]1Cc1nc(-c2ccc(Nc3nc(-c4ccc(OC(F)(F)F)cc4)cs3)cc2)no1
// returns A or B , whichever has the lower Activity State your choice using its label. B
(B: 44%, A: 83%)

1 = COc1cccc(-c2csc(Nc3ccc(-c4noc(C[C@@H]5CCCN5C(=N)N)n4)cc3)n2)c1
2 = Cc1ccc(-c2csc(Nc3ccc(-c4noc(C[C@@H]5CCCN5C(=N)N)n4)cc3)n2)cc1C
Between the entries labelled 1 and 2 , which has a larger Activity value on record? State your choice using its label. 1

1 = COc1ccc(-c2csc(Nc3ccc(-c4noc(C[C@@H]5CCCN5C(=N)N)n4)cc3)n2)cc1Cl
2 = N=C(N)N1CCC[C@H]1Cc1nc(-c2ccc(Nc3nc(-c4cc(F)cc(F)c4)cs3)cc2)no1
Between the entries labelled 1 and 2 , which has a larger Activity value on record? State your choice using its label. 1

====

target: Sphingosine kinase 2 (Homo sapiens) (UniProt Q9NRA0); experiment: Inhibition of recombinant human SPHK2 assessed as residual activity at 0.3 uM using sphingosine as substrate after 30 mins in presence of gamma-[32P]-ATP by liquid scintillation counting relative to control
result type: Activity (%)

Some solved entries appear below for comparison.
- N=C(N)N1CCC[C@H]1Cc1nc(-c2ccc(Nc3nc(-c4cc5ccccc5o4)cs3)cc2)no1: 67
- N=C(N)N1CCC[C@H]1Cc1nc(-c2ccc(Nc3nc(-c4cc(C(F)(F)F)ccc4F)cs3)cc2)no1: 48
- CN(c1ccc(-c2noc(C[C@@H]3CCCN3C(=N)N)n2)cc1)c1nc(-c2ccc(-c3ccccc3)cc2)cs1: 100
- N=C(N)N1CCC[C@H]1Cc1nc(-c2ccc(Nc3nc(-c4cccc(Cl)c4)cs3)cc2)no1: 45

I = N=C(N)N1CCC[C@H]1Cc1nc(-c2ccc(Nc3nc(-c4ccc(Br)cc4)cs3)cc2)no1
II = N=C(N)N1CCC[C@H]1Cc1nc(-c2ccc(Nc3nc(-c4ccc(-c5ccc(F)cc5)cc4)cs3)cc2)no1
Between the entries labelled I and II , which has a larger Activity value on record? State your choice using its label. I
